- Target desc: T1, human EphB4 (Homo sapiens, UniProt P54760)
- T1 construct: a protein of the extracellular region of each human Eph receptor fused with the SEAP protein and the His tag; made in house; host or cells: Expi293F cells
- T1 sequence (P54760 16-539 limits assumed): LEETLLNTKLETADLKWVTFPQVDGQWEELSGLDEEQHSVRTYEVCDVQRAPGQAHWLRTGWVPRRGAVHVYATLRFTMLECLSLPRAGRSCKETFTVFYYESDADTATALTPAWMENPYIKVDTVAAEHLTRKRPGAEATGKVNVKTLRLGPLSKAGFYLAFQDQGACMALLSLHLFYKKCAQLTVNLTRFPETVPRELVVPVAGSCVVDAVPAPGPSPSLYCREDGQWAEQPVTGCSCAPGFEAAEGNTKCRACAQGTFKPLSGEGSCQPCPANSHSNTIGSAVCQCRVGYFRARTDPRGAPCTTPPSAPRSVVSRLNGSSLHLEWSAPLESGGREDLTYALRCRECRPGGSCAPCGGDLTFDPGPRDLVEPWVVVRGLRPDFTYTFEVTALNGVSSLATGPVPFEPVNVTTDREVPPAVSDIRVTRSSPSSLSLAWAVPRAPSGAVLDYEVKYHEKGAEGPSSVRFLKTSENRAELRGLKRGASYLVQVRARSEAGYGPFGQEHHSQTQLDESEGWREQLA
- Assay explanation: Selectivity ELISA of humanized antibodies for human Eph receptor
- Assay type: binding
- Condition context: coated protein 1 nM
Overview of recorded hEphB4-SEAP-: absorbance at 450 nm, percentage with respect to hEphA4-SEAP-His as 100% for various molecules
The reply should contain only the number, in %.

94 (antibody, V domains shown, constant regions without entry; synthetic humanized antibody light chain variable region sequence; synthetic humanized antibody heavy chain variable region sequence) VL: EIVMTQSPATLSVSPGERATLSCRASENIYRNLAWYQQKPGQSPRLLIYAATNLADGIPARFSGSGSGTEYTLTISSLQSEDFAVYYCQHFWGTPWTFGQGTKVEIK VH: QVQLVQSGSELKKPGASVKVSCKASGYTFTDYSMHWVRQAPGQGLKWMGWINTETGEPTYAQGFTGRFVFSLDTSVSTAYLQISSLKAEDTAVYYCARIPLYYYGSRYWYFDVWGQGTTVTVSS : 6.5

Moving on to the next molecule.
Short answer for 85 (antibody, V domains shown, constant regions without entry; synthetic humanized antibody light chain variable region sequence; synthetic humanized antibody heavy chain variable region sequence) VL: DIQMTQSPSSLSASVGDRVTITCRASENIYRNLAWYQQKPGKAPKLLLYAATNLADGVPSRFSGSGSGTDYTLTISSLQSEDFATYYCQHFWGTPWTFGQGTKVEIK VH: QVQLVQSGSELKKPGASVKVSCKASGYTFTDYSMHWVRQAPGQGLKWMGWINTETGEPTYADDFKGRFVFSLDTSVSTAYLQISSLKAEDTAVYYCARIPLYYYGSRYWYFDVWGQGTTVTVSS : hEphB4-SEAP-: absorbance at 450 nm, percentage with respect to hEphA4-SEAP-His as 100% was 5.2

// provenance: patent US10428140B2
